Attribution: patent US20050282739A1

- testedTarget: T1, human melanocortin-3 receptor (hMC3-R) (human, UniProt P41968 1-323)
- T1 construct: whole, on cells; membranes prepared from hMC3-R cells were used; also called Melanocortin Receptor 3
- T1 sequence (P41968 whole entry): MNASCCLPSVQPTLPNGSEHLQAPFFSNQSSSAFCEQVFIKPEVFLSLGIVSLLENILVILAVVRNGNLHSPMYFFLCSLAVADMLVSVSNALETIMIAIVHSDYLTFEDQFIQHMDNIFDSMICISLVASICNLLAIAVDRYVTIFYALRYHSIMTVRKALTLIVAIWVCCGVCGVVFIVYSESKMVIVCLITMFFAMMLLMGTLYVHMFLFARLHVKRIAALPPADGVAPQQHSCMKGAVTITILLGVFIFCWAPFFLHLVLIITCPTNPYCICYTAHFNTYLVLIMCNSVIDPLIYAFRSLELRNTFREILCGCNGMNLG
- experimentalDetails: 125I-NDP-α-MSH competition, hMC3-R membranes
Square brackets hold non-standard residues; d marks the D form. Nle = CCCC[C@H](N)C(=O)O
measure: % Inhibition at 1 µM (%)

# count of solved cases: 3
>  <binder>
Ac-SYS[Nle]EHFRWCGKPV-NH2 (also: oxorhenium(V) N3S1 chelate at Cys10) [metallopeptide 1-5]

>  <endpointUnit>
%

>  <% Inhibition at 1 µM>
0

$$$$
>  <binder>
Ac-SYS[Nle]EHFRWGKCPV-NH2 (also: oxorhenium(V) N3S1 chelate at Cys12) [metallopeptide 1-3]

>  <endpointUnit>
%

>  <% Inhibition at 1 µM>
0

$$$$
>  <binder>
Ac-SYS[Nle]EHFRCWGKPV-NH2 (also: oxorhenium(V) N3S1 chelate at Cys9) [metallopeptide 1-6]

>  <endpointUnit>
%

>  <% Inhibition at 1 µM>
0

$$$$

A = Ac-SYCS[Nle]EHFRWGKPV-NH2 (also: oxorhenium(V) N3S1 chelate at Cys3) [metallopeptide 1-12]
B = Ac-SYS[Nle]ECHFRWGKPV-NH2 (also: oxorhenium(V) N3S1 chelate at Cys6) [metallopeptide 1-9]
Req: Higher % Inhibition at 1 µM: A or B ? Label of pick, please.
Resp: A
